Where do the numbers come from? From the NIST ThermoML archive (doi:10.1016/j.jct.2006.09.001).

- methodSummary: Molar enthalpy of transition or fusion
- conditionDescription: Crystal; DSC
assayReadout: Molar enthalpy of transition or fusion (kcal/mol)

Examples with their reported Molar enthalpy of transition or fusion follow.
{"compound": "OC[c-]1cccc1.[Fe+2].c1cc[cH-]c1 [(hydroxymethyl)ferrocene]", "observedValue": 5.66}
{"compound": "[Fe+2].c1cc[cH-]c1.c1ccc(C[c-]2cccc2)cc1", "observedValue": 5.66}

1. [CH]1C=CC=C1.[CH]1C=CC=C1.[Fe]
2. O=C(c1ccccc1)c1ccc[cH-]1.[Fe+2].c1cc[cH-]c1
Task for the reader: decide whether 1 or 2 has the larger Molar enthalpy of transition or fusion. Returns: label corresponding to the selected item. 2

* * *

- conditionDescription: Crystal; DTA
assayReadout: Normal melting temperature (°C)

Examples with their reported Normal melting temperature follow.
{"compound": "O=C(c1ccccc1)c1ccc[cH-]1.[Fe+2].c1cc[cH-]c1 [benzoylferrocene]", "assayReadout": "Normal melting temperature", "observedValue": 109.5}
{"compound": "[Fe+2].c1cc[cH-]c1.c1ccc(C[c-]2cccc2)cc1 [benzylferrocene]", "assayReadout": "Normal melting temperature", "observedValue": 76.1}

I. OC[c-]1cccc1.[Fe+2].c1cc[cH-]c1 [(hydroxymethyl)ferrocene]
II. [CH]1C=CC=C1.[CH]1C=CC=C1.[Fe] [ferrocene]
Between I and II , which one shows the smaller Normal melting temperature number? Returns: label corresponding to the selected item. I
(I: 79.1 °C, II: 174.7 °C)
